Molecular target: Alpha-2B adrenergic receptor (Homo sapiens, UniProt P18089)
Sequence (P18089 whole entry): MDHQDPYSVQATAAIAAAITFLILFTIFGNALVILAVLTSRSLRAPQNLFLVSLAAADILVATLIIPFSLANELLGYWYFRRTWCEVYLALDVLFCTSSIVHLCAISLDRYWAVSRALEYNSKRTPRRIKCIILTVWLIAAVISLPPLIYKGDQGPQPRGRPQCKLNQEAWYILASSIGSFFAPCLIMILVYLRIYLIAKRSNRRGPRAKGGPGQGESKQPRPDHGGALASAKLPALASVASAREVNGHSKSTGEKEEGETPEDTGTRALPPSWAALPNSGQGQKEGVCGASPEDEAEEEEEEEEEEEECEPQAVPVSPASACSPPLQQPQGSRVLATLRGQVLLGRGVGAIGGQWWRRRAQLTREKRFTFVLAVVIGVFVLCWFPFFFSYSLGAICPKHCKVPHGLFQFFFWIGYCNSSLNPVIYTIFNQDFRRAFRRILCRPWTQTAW
Assay: Binding affinity at human Alpha-2B adrenergic receptor in CHO cells by [3H]rauwolscine (1 nM) displacement.
MEASUREMENT_KIND: IC50 (nM)
Give the quantity in nM, number only.

> print(dat)
                               smiles.input                       experimental.system  value.units  readout.value
1  Cc1nc2ccc(I)cn2c(=O)c1CCN1CCc2oc3ccccc3c2C1  Alpha-2B adrenergic receptor (Homo sapiens, UniProt P18089)           nM           2.09
2  Cc1nc2c(Cl)cc(C(F)(F)F)cn2c(=O)c1CCN1CCc2oc3ccccc3c2C1  Alpha-2B adrenergic receptor (Homo sapiens, UniProt P18089)           nM           1.95
3  COc1cc2nc(C)c(CCN3CCc4oc5ccccc5c4C3)c(=O)n2cc1OC  Alpha-2B adrenergic receptor (Homo sapiens, UniProt P18089)           nM            195
4  Cc1nc2ccccn2c(=O)c1CCN1CCc2oc3ccccc3c2C1  Alpha-2B adrenergic receptor (Homo sapiens, UniProt P18089)           nM           2.57

Q: Record `Cc1nc2ccccn2c(=O)c1CCN1CCc2oc3ccc(Cl)cc3c2C1` : what is its IC50 with Alpha-2B adrenergic receptor (Homo sapiens, UniProt P18089)?
Ans: 79.4

---

Molecular target: Alpha-2A adrenergic receptor (Homo sapiens, UniProt P08913)
Assay: Binding affinity at human Alpha-2A adrenergic receptor in CHO cells by [3H]rauwolscine (1 nM) displacement.
MEASUREMENT_KIND: log10(IC50) (log10 of the value in nM)
# log10 transformed; quantity=IC50; unit=nM

Guide cases for log10(IC50), answers given:
> print(dat)
                               smiles.input  measurement.kind  readout.value
1  COc1cc2nc(C)c(CCN3CCc4oc5ccccc5c4C3)c(=O)n2cc1OC       log10(IC50)           0.55
2  Cc1nc2ccc(Br)cn2c(=O)c1CCN1CCc2oc3ccccc3c2C1       log10(IC50)          -0.45
3  Cc1ccc2nc(C)c(CCN3CCc4oc5ccccc5c4C3)c(=O)n2c1       log10(IC50)          -0.46
4  Cc1nc2c(Cl)cc(Cl)cn2c(=O)c1CCN1CCc2oc3ccccc3c2C1       log10(IC50)          -0.23
5  Cc1nc2c(O)cccn2c(=O)c1CCN1CCc2oc3ccccc3c2C1       log10(IC50)          -0.16

Q: Which log10(IC50) value is on record for `Cc1nc2c(C)cccn2c(=O)c1CCN1CCc2oc3ccccc3c2C1` ?
Ans: -0.22

Q: Try this molecule too: `Cc1nc2ccccn2c(=O)c1CCN1CCc2sc3ccccc3c2C1`
Ans: 0.24

Q: Try this molecule too: `Cc1nc2ccc(Cl)cn2c(=O)c1CCN1CCc2oc3ccccc3c2C1`
Ans: -0.67

Q: Try this molecule too: `COc1cccn2c(=O)c(CCN3CCc4oc5ccccc5c4C3)c(C)nc12`
Ans: -0.53

---

Reported IC50 values for a set of molecules
Biological target: Alpha-2A adrenergic receptor (Homo sapiens)
Sequence (P08913 whole entry): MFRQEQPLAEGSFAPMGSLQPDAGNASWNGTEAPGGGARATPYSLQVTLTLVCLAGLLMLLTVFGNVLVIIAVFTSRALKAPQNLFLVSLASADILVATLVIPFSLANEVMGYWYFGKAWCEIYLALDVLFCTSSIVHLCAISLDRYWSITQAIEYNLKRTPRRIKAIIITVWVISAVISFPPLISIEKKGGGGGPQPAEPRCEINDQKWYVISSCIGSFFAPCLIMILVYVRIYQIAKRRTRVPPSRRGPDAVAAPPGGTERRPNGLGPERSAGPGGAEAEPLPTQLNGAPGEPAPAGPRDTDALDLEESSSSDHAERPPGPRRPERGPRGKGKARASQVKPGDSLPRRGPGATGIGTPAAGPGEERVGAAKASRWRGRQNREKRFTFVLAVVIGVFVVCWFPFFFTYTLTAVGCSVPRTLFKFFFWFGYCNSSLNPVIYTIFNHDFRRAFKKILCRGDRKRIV
Experiment: Binding affinity at human Alpha-2A adrenergic receptor in CHO cells by [3H]rauwolscine (1 nM) displacement.
Format: cell-based
# answer = value followed by unit

> print(dat)
                                   molecule  readout.value
1  Cc1nc2ccccn2c(=O)c1CCN1CCc2oc3c(Cl)cccc3c2C1       0.891 nM
2  Cc1nc2cccc(C)n2c(=O)c1CCN1CCc2oc3ccccc3c2C1       0.288 nM
3  Cc1nc2c(Cl)cc(C(F)(F)F)cn2c(=O)c1CCN1CCc2oc3ccccc3c2C1        1.17 nM
4  Cc1nc2ccccn2c(=O)c1CCCN1CCc2oc3ccccc3c2C1        10.2 nM
5  Cc1nc2ccc(I)cn2c(=O)c1CCN1CCc2oc3ccccc3c2C1        0.24 nM

# evaluate next
Q: Which IC50 value is on record for `O=c1c(CCN2CCc3oc4ccccc4c3C2)c(Cc2ccccc2)nc2ccccn12` ?
Ans: 2.19 nM
